target: UniProt O43497; experiment: T-type calcium channel block, whole cell patch clamp (α1G); conditions: HEK cells stably expressing human α1G; mainly non-inactivated protocol; values above 10 μM represented as 10 μM, values below 0.30 μM represented as 0.30 μM
ASSAY_METRIC: IC50

Below, 3 molecules whose answers are already recorded.
Query: Give reported IC50 value for "CC(C)(C)c1nc(CN[C@H]2CC[C@@H](CNC(=O)c3cc(C(F)(F)F)cc(C(F)(F)F)c3)CC2)no1"
Response: 1150 nM

Query: Give reported IC50 value for "CN(C(=O)CN[C@H]1CC[C@@H](CNC(=O)c2cc(C(F)(F)F)cc(C(F)(F)F)c2)CC1)C1CCCC1"
Response: ≤ 300 nM

Query: Give reported IC50 value for "CC(C)(C)NC(=O)CN[C@H]1CC[C@@H](CNC(=O)c2cc(C(F)(F)F)cc(C(F)(F)F)c2)CC1"
Response: ≤ 300 nM

Continuing:
Query: Give reported IC50 value for "Cc1ccc(NC(=O)CN[C@H]2CC[C@H](CNC(=O)c3cc(C(F)(F)F)cc(C(F)(F)F)c3)CC2)nc1"
Response: 730 nM

Query: Give reported IC50 value for "COc1cccnc1CN[C@H]1CC[C@@H](CNC(=O)c2cc(F)cc(C(F)(F)F)c2)CC1"
Response: 3320 nM

Query: Give reported IC50 value for "Cc1cc(CN[C@H]2CC[C@H](CNC(=O)c3cc(C(F)(F)F)cc(C(F)(F)F)c3)CC2)no1"
Response: 5590 nM

Query: Give reported IC50 value for "O=C(C[C@H]1CC[C@@H](NC(=O)[C@H]2C[C@H](O)CN2)CC1)Nc1cc(C(F)(F)F)cc(C(F)(F)F)c1"
Response: 7600 nM

----------
molecular target: human α1G T-type channels (Homo sapiens); assay: T-type calcium channel block, whole cell patch clamp (α1G); settings: HEK cells stably expressing human α1G; mainly non-inactivated protocol; values above 10 μM represented as 10 μM, values below 0.30 μM represented as 0.30 μM
Entries and their measured pIC50 follow.
Just so you know, pIC50 here is -log10 of the concentration in molar units; reply with that number alone.

Below, 3 molecules whose answers are already recorded.
Query: Give reported pIC50 value for "CC(C)(C)c1nc(CNC[C@H]2CC[C@H](NC(=O)c3cc(C(F)(F)F)cc(C(F)(F)F)c3)CC2)no1"
Response: 5.86

Query: Give reported pIC50 value for "O=C(CCC(F)(F)F)NCCN[C@H]1CC[C@H](CNC(=O)c2cc(C(F)(F)F)cc(C(F)(F)F)c2)CC1"
Response: 6.01

Query: Give reported pIC50 value for "O=C(NC[C@H]1CC[C@@H](NCC(=O)N2CCCC2)CC1)c1cc(C(F)(F)F)cc(C(F)(F)F)c1"
Response: 5.88

Continuing:
Query: Give reported pIC50 value for "CC(C)(C)c1nc(CN[C@H]2CC[C@H](CNC(=O)c3cc(C(F)(F)F)cc(C(F)(F)F)c3)CC2)no1"
Response: 5.87

Query: Give reported pIC50 value for "O=C(NC[C@H]1CC[C@@H](NC(=O)C2(c3ccccc3)CCNCC2)CC1)c1cc(C(F)(F)F)cc(C(F)(F)F)c1"
Response: 5.24

Query: Give reported pIC50 value for "O=C(C[C@H]1CC[C@H](NC(=O)[C@@H]2CCCN2)CC1)Nc1cc(C(F)(F)F)cc(C(F)(F)F)c1"
Response: 6.06

Query: Give reported pIC50 value for "COCC(C)(C)N(C)C(=O)CN[C@H]1CC[C@@H](CNC(=O)c2cc(F)cc(Cl)c2)CC1"
Response: 5.80

Query: Give reported pIC50 value for "O=C(NC[C@H]1CC[C@H](NC(=O)[C@@H]2CC[C@H](c3ccccc3)N2)CC1)c1cc(C(F)(F)F)cc(C(F)(F)F)c1"
Response: 5.95

Query: Give reported pIC50 value for "CC(C)NC(=O)CN[C@H]1CC[C@H](CNC(=O)c2cc(C(F)(F)F)cc(C(F)(F)F)c2)CC1"
Response: 5.63

Query: Give reported pIC50 value for "COc1cc(F)cc(C(=O)NC[C@H]2CC[C@@H](NCC(=O)N(C)C(C)(C)C)CC2)c1"
Response: 5.47

Query: Give reported pIC50 value for "CCN(CC)C(=O)CN[C@H]1CC[C@H](CNC(=O)c2cc(C(F)(F)F)cc(C(F)(F)F)c2)CC1"
Response: 6.36

Query: Give reported pIC50 value for "COc1cc(F)cc(C(=O)NC[C@H]2CC[C@H](NCC(=O)NC3(C)CCC3)CC2)c1"
Response: 5.42

----------
target: UniProtKB O43497; experiment: T-type calcium channel block, whole cell patch clamp (α1G); conditions: HEK cells stably expressing human α1G; mainly non-inactivated protocol; values above 10 μM represented as 10 μM, values below 0.30 μM represented as 0.30 μM
Entries and their measured IC50 follow.
Report only the number, with the unit nM understood.

Below, 2 molecules whose answers are already recorded.
Query: Give reported IC50 value for "CC1(C)CCCN1C(=O)CN[C@H]1CC[C@@H](CNC(=O)c2cc(F)cc(Cl)c2)CC1"
Response: 1100

Query: Give reported IC50 value for "NC1(C(=O)N[C@H]2CC[C@@H](CNC(=O)c3cc(C(F)(F)F)cc(C(F)(F)F)c3)CC2)CCCC1"
Response: 9670

Continuing:
Query: Give reported IC50 value for CC(C)(C)C(O)CN[C@H]1CC[C@H](CNC(=O)c2cc(C(F)(F)F)cc(C(F)(F)F)c2)CC1 (stereo partly drawn)
Response: 470

Query: Give reported IC50 value for CC(C)(C)C(O)CN[C@H]1CC[C@@H](CNC(=O)c2cc(C(F)(F)F)cc(C(F)(F)F)c2)CC1 (stereo partly drawn)
Response: 390

Query: Give reported IC50 value for "CC1(C)CCCN1C(=O)CN[C@H]1CC[C@H](CNC(=O)c2cc(F)cc(Cl)c2)CC1"
Response: 1580

Query: Give reported IC50 value for CC(C)(C)C1CN([C@H]2CC[C@H](CNC(=O)c3cc(C(F)(F)F)cc(C(F)(F)F)c3)CC2)C(=O)O1 (stereo partly drawn)
Response: 1180

Query: Give reported IC50 value for "NC1(C(=O)N[C@H]2CC[C@@H](CC(=O)Nc3cc(C(F)(F)F)cc(C(F)(F)F)c3)CC2)CCOCC1"
Response: 4590

Query: Give reported IC50 value for "O=C(NC[C@H]1CC[C@@H](NC(=O)[C@@H]2C[C@@H](c3ccccc3)CN2)CC1)c1cc(C(F)(F)F)cc(C(F)(F)F)c1"
Response: 940

Query: Give reported IC50 value for "CN(C(=O)CN[C@H]1CC[C@H](CNC(=O)c2cc(F)cc(Cl)c2)CC1)C(C)(C)C"
Response: 2020

----------
target: human α1G T-type channels (Homo sapiens, UniProt O43497); assay: T-type calcium channel block, whole cell patch clamp (α1G); conditions: HEK cells stably expressing human α1G; mainly non-inactivated protocol; values above 10 μM represented as 10 μM, values below 0.30 μM represented as 0.30 μM
Sequence (O43497 whole entry): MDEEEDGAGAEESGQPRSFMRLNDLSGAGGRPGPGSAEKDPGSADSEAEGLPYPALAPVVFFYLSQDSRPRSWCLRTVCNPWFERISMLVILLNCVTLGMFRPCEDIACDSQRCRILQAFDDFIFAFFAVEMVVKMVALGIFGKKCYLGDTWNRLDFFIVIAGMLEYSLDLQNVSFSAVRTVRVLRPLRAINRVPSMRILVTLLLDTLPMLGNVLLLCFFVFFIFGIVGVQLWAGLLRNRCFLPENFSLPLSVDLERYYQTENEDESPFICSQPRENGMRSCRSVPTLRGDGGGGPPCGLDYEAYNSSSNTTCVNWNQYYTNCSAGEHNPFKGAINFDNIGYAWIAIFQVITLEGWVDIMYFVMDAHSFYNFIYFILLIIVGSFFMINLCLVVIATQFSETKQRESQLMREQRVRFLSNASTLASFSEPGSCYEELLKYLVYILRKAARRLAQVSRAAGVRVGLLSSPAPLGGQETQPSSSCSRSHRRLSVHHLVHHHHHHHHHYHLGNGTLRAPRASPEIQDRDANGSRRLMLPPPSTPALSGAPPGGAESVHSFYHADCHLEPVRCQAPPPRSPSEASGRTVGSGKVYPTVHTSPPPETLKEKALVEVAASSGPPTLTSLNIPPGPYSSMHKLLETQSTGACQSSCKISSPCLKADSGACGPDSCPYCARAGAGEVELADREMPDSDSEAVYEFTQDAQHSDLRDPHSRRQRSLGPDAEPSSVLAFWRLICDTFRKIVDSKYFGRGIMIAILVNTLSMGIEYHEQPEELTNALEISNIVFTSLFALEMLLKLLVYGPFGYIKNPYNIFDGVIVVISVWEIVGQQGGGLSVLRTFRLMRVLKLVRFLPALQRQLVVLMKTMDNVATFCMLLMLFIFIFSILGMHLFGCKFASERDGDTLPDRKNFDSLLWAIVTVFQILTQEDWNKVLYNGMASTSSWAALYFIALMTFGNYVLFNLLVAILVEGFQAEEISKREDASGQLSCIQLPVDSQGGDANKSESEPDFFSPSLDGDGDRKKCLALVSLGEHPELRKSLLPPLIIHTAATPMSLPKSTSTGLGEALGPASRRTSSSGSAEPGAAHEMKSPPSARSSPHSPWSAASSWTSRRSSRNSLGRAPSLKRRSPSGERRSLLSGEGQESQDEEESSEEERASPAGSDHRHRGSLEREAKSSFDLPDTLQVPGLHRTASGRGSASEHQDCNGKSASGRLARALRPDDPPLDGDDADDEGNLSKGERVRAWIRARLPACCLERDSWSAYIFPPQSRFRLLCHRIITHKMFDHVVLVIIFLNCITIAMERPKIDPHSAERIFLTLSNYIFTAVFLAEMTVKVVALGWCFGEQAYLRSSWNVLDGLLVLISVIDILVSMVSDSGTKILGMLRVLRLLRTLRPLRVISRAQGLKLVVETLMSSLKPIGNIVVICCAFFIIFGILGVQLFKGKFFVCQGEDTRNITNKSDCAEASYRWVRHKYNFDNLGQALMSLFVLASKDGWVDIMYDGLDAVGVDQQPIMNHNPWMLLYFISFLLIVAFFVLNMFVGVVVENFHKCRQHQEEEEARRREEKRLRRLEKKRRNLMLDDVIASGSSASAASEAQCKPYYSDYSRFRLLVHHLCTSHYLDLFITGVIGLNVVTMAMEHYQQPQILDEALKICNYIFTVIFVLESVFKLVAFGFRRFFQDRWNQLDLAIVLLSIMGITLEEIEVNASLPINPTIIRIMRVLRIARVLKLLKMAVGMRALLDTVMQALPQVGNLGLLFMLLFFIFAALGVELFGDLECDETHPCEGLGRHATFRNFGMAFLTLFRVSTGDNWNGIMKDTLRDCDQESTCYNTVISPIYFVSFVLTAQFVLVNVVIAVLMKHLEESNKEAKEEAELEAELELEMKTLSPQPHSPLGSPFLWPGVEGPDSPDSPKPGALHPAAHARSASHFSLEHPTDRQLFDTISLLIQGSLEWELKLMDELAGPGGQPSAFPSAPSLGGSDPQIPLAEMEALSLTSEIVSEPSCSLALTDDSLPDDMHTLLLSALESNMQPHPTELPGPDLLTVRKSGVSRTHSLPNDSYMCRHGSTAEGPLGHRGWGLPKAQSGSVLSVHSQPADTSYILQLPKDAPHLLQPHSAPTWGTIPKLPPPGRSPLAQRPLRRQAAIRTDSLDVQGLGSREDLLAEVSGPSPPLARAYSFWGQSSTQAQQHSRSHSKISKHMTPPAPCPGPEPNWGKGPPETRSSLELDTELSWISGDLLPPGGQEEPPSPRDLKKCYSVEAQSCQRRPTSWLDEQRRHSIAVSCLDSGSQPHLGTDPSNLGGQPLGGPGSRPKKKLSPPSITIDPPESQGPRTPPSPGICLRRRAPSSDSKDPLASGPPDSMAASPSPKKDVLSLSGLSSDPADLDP
pIC50: −log10 of the molar value.
ASSAY_METRIC: pIC50

Below, 3 molecules whose answers are already recorded.
Query: Give reported pIC50 value for C#CC(CC)(CC)NC(=O)CN[C@H]1CC[C@H](CNC(=O)c2cc(C(F)(F)F)cc(C(F)(F)F)c2)CC1 [Compound 62]
Response: ≥ 6.52

Query: Give reported pIC50 value for CCN(CC)C(=O)CN[C@H]1CC[C@@H](CNC(=O)c2cc(C(F)(F)F)cc(C(F)(F)F)c2)CC1 [Compound 41]
Response: ≥ 6.52

Query: Give reported pIC50 value for CC(C)(C)NC(=O)CN[C@H]1CC[C@H](CNC(=O)c2cc(C(F)(F)F)cc(C(F)(F)F)c2)CC1 [Compound 55]
Response: ≥ 6.52

Continuing:
Query: Give reported pIC50 value for Cc1ccc(-c2csc(NC(=O)C[C@H]3CC[C@@H](NCC(O)(C(F)(F)F)C(F)(F)F)CC3)n2)cc1 [Compound 152]
Response: ≥ 6.52

----------
Entries and their measured pIC50 follow.
target: human α1G T-type channels (Homo sapiens, UniProt O43497); test: T-type calcium channel block, whole cell patch clamp (α1G); conditions: HEK cells stably expressing human α1G; mainly non-inactivated protocol; values above 10 μM represented as 10 μM, values below 0.30 μM represented as 0.30 μM
pIC50: −log10 of the molar value.

Below, 3 compounds whose answers are already recorded.
Query: Give reported pIC50 value for CCC1CCCN1C(=O)CN[C@H]1CC[C@@H](CNC(=O)c2cc(C(F)(F)F)cc(C(F)(F)F)c2)CC1 (stereo partly drawn)
Response: ≥ 6.52

Query: Give reported pIC50 value for CC1CCCCN1C(=O)CN[C@H]1CC[C@H](CNC(=O)c2cc(C(F)(F)F)cc(C(F)(F)F)c2)CC1 (stereo partly drawn)
Response: ≥ 6.52

Query: Give reported pIC50 value for "O=C(NC[C@H]1CC[C@@H](NCCNS(=O)(=O)C(F)(F)F)CC1)c1cc(F)cc(C(F)(F)F)c1"
Response: ≤ 5.00

Continuing:
Query: Give reported pIC50 value for CCC1CCCN1C(=O)CN[C@H]1CC[C@H](CNC(=O)c2cc(C(F)(F)F)cc(C(F)(F)F)c2)CC1 (stereo partly drawn)
Response: ≥ 6.52

Query: Give reported pIC50 value for CCC(C)NC(=O)CN[C@H]1CC[C@@H](CNC(=O)c2cc(C(F)(F)F)cc(C(F)(F)F)c2)CC1 (stereo partly drawn)
Response: ≥ 6.52

Query: Give reported pIC50 value for CC1CCCCN1C(=O)CN[C@H]1CC[C@@H](CNC(=O)c2cc(C(F)(F)F)cc(C(F)(F)F)c2)CC1 (stereo partly drawn)
Response: ≥ 6.52

Origin of the recorded values: patent US20090298834A1
